Reference for the values: paper PMC9118553

- Protocol Details: RT-S9 substrate depletion assay, mixture of 9 anionic surfactants (AnionMixture)
- Settings: tested in a mixture
Property: Slope of depletion curve (log concentration vs time) (min-1)

Below, each entry is followed by its recorded Slope of depletion curve (log concentration vs time) result.
Compound	Reading
CCCCC(CC)COP(=O)(O)OCC(CC)CCCC (stereo not drawn) [BEHP, bis(2-ethylhexyl)phosphate]	-0.0003
CCCCC(CC)COC(=O)CC(C(=O)OCC(CC)CCCC)S(=O)(=O)O (stereo not drawn) [DOSS, bis(2-ethylhexyl)sulfosuccinate]	-0.0021
CCCCCCCCCCCCCCCCS(=O)(=O)O [C16SO3, hexadecylsulfonate]	-0.0008
CCCCCCCCCCCCCOS(=O)(=O)O [C13SO4, tridecylsulfate]	-0.0042
CCCCCCCCCCCOS(=O)(=O)O [C11SO4, undecylsulfate]	-0.0202

a = CCCCCCCCCCCCCCS(=O)(=O)O [C14SO3, tetradecylsulfonate]
b = CCCCCCCCCCc1ccc(S(=O)(=O)O)cc1 [C10-1-LAS, 1-n-(p-sulfophenyl)decane]
c = CCCCCCCCCCCCOCCOCCOCCOCCOS(=O)(=O)O [C12-EO4-SO4, dodecyltetraethoxysulfate]
d = CCCCCCCCCCS(=O)(=O)O [C10SO3, decylsulfonate]
Rank descending by Slope of depletion curve (log concentration vs time). Could you list the labels in the order requested? a, b, d, c
(a: -0.0010 min-1, b: -0.0050 min-1, d: -0.0111 min-1, c: -0.0216 min-1)

* * *

- System: rainbow trout
- Protocol Details: In vivo bioconcentration experiment with a mixture of anionic surfactants, flow-through aquaria, 10 °C, pH 7.8
- Settings: measured concentrations in water, simpler estimation method (Text S3); 95% confidence intervals in brackets
Property: Elimination rate constant kT

These recorded examples may help you get a feel for the data.
Molecule	Property	Reading
CCCCCCCCCCCOS(=O)(=O)O [C11SO4, undecylsulfate]	Elimination rate constant kT	0.179 (19) h-1
CCCCCCCCCCc1ccc(S(=O)(=O)O)cc1	Elimination rate constant kT	0.046 (3) h-1
CCCCCCCCCCCCCCS(=O)(=O)O [C14SO3, tetradecylsulfonate]	Elimination rate constant kT	0.026 (5) h-1
CCCCCCCCCCCCCOS(=O)(=O)O [C13SO4, tridecylsulfate]	Elimination rate constant kT	0.053 (7) h-1
CCCCCCCCCCCCCS(=O)(=O)O [C13SO3, tridecylsulfonate]	Elimination rate constant kT	0.057 (7) h-1
CCCCCCCCCCCCOCCOCCOCCOCCOS(=O)(=O)O [C12-EO4-SO4, dodecyltetraethoxysulfate]	Elimination rate constant kT	0.098 (26) h-1

Give a short answer stating reported Elimination rate constant kT for CCCCCCCCCCCCCCCCS(=O)(=O)O [C16SO3, hexadecylsulfonate] . 0.0073 (10) h-1

* * *

- Protocol Details: Baseline screening BCF (0.0125 DMLW, equilibrium partitioning, no biotransformation)
- Settings: determined as 0.0125 DMLW
Property: Log baseline BCF (L kg-1 ww)

Molecule	Log baseline BCF (L kg-1 ww)
CCCCC(CC)COC(=O)CC(C(=O)OCC(CC)CCCC)S(=O)(=O)O (stereo not shown) [DOSS, bis(2-ethylhexyl)sulfosuccinate]	2.68

I = CCCCCCCCCCCCCCS(=O)(=O)O [C14SO3, tetradecylsulfonate]
II = CCCCCCCCCCCS(=O)(=O)O [C11SO3, undecylsulfonate]
Could you kindly indicate whether I or II has the higher Log baseline BCF value? API: response body contains the label of the selected item. I

P = CCCCCCCCCCCCCCCCS(=O)(=O)O [C16SO3, hexadecylsulfonate]
Q = CCCCCCCCCCCOS(=O)(=O)O [C11SO4, undecylsulfate]
Given the listed records, identify the one among P and Q with higher Log baseline BCF. Answer by stating the label of the chosen item. P
(P: 4.29 L kg-1 ww, Q: 2.26 L kg-1 ww)

* * *

- System: rainbow trout
- Protocol Details: In vivo bioconcentration experiment with a mixture of anionic surfactants, flow-through aquaria, 10 °C, pH 7.8
- Settings: determined using nominal concentrations in water
Property: Elimination rate constant kT (h⁻¹)

These recorded examples may help you get a feel for the data.
Compound	Elimination rate constant kT / h⁻¹
CCCCCCCCCCCCCCS(=O)(=O)O [C14SO3, tetradecylsulfonate]	0.028
CCCCCCCCCCc1ccc(S(=O)(=O)O)cc1	0.049
CCCCCCCCCCCCCS(=O)(=O)O [C13SO3, tridecylsulfonate]	0.065
CCCCCCCCCCCCOCCOCCOCCOCCOS(=O)(=O)O [C12-EO4-SO4, dodecyltetraethoxysulfate]	0.114

I = CCCCCCCCCCCCCOS(=O)(=O)O [C13SO4, tridecylsulfate]
II = CCCCCCCCCCCOS(=O)(=O)O [C11SO4, undecylsulfate]
Identify the item whose Elimination rate constant kT is the smaller number: I or II Respond with the label that goes with your answer. I
(I: 0.074 h⁻¹, II: 0.233 h⁻¹)

* * *

- System: rainbow trout
- Protocol Details: In vivo bioconcentration experiment with a mixture of anionic surfactants, flow-through aquaria, 10 °C, pH 7.8
- Settings: determined with measured concentrations in water
Property: Log BCF (L kg-1 ww)

Past entries and their recorded results:
Compound	Log BCF, L kg-1 ww
CCCCCCCCCCCCOCCOCCOCCOCCOS(=O)(=O)O [C12-EO4-SO4, dodecyltetraethoxysulfate]	-0.05
CCCCCCCCCCCCCCS(=O)(=O)O [C14SO3, tetradecylsulfonate]	1.47
CCCCCCCCCCS(=O)(=O)O [C10SO3, decylsulfonate]	-1.38
CCCCCCCCCCCS(=O)(=O)O [C11SO3, undecylsulfonate]	-0.87
CCCCC(CC)COC(=O)CC(C(=O)OCC(CC)CCCC)S(=O)(=O)O (stereo not shown) [DOSS, bis(2-ethylhexyl)sulfosuccinate]	0.15
CCCCCCCCCCCCCS(=O)(=O)O [C13SO3, tridecylsulfonate]	0.65
CCCCCCCCCCCCCOS(=O)(=O)O [C13SO4, tridecylsulfate]	1.53

P = CCCCCCCCCCc1ccc(S(=O)(=O)O)cc1
Q = CCCCCCCCCCCCCCCCS(=O)(=O)O [C16SO3, hexadecylsulfonate]
R = CCCCCCCCCCCOS(=O)(=O)O [C11SO4, undecylsulfate]
# rank_down: sort by Log BCF, max first Note for the reader: the ranking is given by listing the labels in the order requested. Q, P, R
(Q: 3.14 L kg-1 ww, P: 1.21 L kg-1 ww, R: -0.11 L kg-1 ww)

* * *

- Protocol Details: In vivo bioconcentration experiment with a mixture of anionic surfactants, flow-through aquaria, 10 °C, pH 7.8
- Design: species or system rainbow trout
- Settings: rainbow trout, whole fish homogenate, other: waterborne exposure in flow-through aquaria, pH 7.8, measured concentrations in water, simpler estimation method (Text S3); 95% confidence intervals in brackets; read-out: Elimination rate constant kT (converted)
Property: k el (s⁻¹)
Expressed in s⁻¹, but write only the number.

Name the recorded k el of the compound listed here: CCCCC(CC)COC(=O)CC(C(=O)OCC(CC)CCCC)S(=O)(=O)O (stereo not shown) [DOSS, bis(2-ethylhexyl)sulfosuccinate] 1.78e-05

* * *

- Test system: rainbow trout
- Protocol Details: In vivo bioconcentration experiment with a mixture of anionic surfactants, flow-through aquaria, 10 °C, pH 7.8;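 on Uptake rate constant kU: L kg-1 h-1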
- Settings: determined using nominal concentrations in water
Property: Uptake rate constant kU (mL/min/kg)

Molecule	Reading
CCCCCCCCCCCCCCS(=O)(=O)O [C14SO3, tetradecylsulfonate]	15
CCCCCCCCCCCCOCCOCCOCCOCCOS(=O)(=O)O [C12-EO4-SO4, dodecyltetraethoxysulfate]	2.7
CCCCC(CC)COC(=O)CC(C(=O)OCC(CC)CCCC)S(=O)(=O)O (stereo not shown) [DOSS, bis(2-ethylhexyl)sulfosuccinate]	2.82

1 = CCCCCCCCCCCOS(=O)(=O)O [C11SO4, undecylsulfate]
2 = CCCCCCCCCCCCCOS(=O)(=O)O [C13SO4, tridecylsulfate]
3 = CCCCCCCCCCCCCS(=O)(=O)O [C13SO3, tridecylsulfonate]
4 = CCCCCCCCCCc1ccc(S(=O)(=O)O)cc1
Sort low-to-high on Uptake rate constant kU, please. Dear reader, please state the labels in the requested order. 1, 3, 4, 2

* * *

Parameter: diffusion coefficient (D) in the epithelial membrane of the gills. Scope: all listed entries.
- Tested on: rainbow trout
- Protocol Details: In vivo bioconcentration experiment with a mixture of anionic surfactants, flow-through aquaria, 10 °C, pH 7.8
- Settings: in vivo

// worked examples, diffusion coefficient (D) in the epithelial membrane of the gills included
Molecule	Test Target	Reading
CCCCCCCCCCCCCCS(=O)(=O)O [C14SO3, tetradecylsulfonate]	rainbow trout	3.1 × 10^–8 m h^–1
CCCCCCCCCCCCOCCOCCOCCOCCOS(=O)(=O)O [C12-EO4-SO4, dodecyltetraethoxysulfate]	rainbow trout	2.0 × 10^–8 m h^–1
CCCCCCCCCCCOS(=O)(=O)O [C11SO4, undecylsulfate]	rainbow trout	3.7 × 10^–8 m h^–1
CCCCCCCCCCCCCS(=O)(=O)O [C13SO3, tridecylsulfonate]	rainbow trout	3.5 × 10^–8 m h^–1
CCCCCCCCCCCCCOS(=O)(=O)O [C13SO4, tridecylsulfate]	rainbow trout	3.9 × 10^–8 m h^–1

Please report the measured diffusion coefficient (D) in the epithelial membrane of the gills for CCCCCCCCCCCCCCCCS(=O)(=O)O [C16SO3, hexadecylsulfonate] tested on rainbow trout. 1.6 × 10^–8 m h^–1

# return diffusion coefficient (D) in the epithelial membrane of the gills for CCCCCCCCCCc1ccc(S(=O)(=O)O)cc1 , test system: rainbow trout 2.4 × 10^–8 m h^–1
